Biological target: T1, human 4-1BB, full length, on transfected cells (human, UniProt Q07011 24-255)
T1 construct: whole, on cells; also called CHOK1-h4-1BB
T1 sequence (Q07011 24-255): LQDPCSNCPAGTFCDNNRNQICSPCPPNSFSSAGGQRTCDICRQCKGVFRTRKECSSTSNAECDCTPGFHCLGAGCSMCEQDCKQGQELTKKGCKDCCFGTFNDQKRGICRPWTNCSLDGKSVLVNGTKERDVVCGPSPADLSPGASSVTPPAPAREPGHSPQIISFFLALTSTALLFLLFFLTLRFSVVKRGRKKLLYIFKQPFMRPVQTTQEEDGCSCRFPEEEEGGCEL
Test: FACS, CHOK1-h4-1BB cells; Ab 0.016 ug/ml
This listing pairs binders with measured average fluorescence intensity.
Please give a number only; it is taken to be in MFI.

- binder: "118F3A2 (antibody, V domains shown) VH: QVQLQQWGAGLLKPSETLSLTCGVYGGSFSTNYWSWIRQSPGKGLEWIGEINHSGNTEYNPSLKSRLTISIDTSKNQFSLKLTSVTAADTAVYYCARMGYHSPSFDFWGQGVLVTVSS VL: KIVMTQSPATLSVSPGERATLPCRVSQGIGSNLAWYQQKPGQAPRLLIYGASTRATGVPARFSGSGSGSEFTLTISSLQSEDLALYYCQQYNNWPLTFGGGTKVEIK"
  endpoint.name: "average fluorescence intensity"
  quantity.unit: "MFI"
  quantitative.readout: 125

Query block: State the recorded average fluorescence intensity for this entry: 15G10D4 (antibody, V domains shown) VH: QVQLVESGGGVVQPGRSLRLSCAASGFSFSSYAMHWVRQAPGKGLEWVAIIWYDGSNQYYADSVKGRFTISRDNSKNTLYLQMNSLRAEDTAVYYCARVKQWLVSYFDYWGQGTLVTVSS VL: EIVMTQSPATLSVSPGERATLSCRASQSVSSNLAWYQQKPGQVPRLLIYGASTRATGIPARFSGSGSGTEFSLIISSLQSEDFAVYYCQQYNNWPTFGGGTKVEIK
Result block: 98.2

Data origin: patent US20200347144A1
